System: NCI-H322M
protocol: relative viability (nuclei count vs DMSO), 5 days (fraction); higher = more cells survive
run-parameters: first compound 0.1 µM
endpoint-label: relative viability
Lab note: jot down the number only; don't add units.

Challenge: Give its relative viability value. Item: NC(=O)Nc1cc(-c2cccc(F)c2)sc1C(=O)N[C@H]1CCCNC1 [AZD7762] + O=C(CCCCCCC(=O)Nc1ccccc1)NO [Vorinostat] (partner 1 µM)
Response given: 0.935

Challenge: State the recorded relative viability for this entry: NC(=O)Nc1cc(-c2cccc(F)c2)sc1C(=O)N[C@H]1CCCNC1 [AZD7762] + COc1cccc2cc(-c3nc([C@H]4CC[C@H](C(=O)O)CC4)n4ncnc(N)c34)[nH]c12 [OSI-027] (partner 0.5 µM)
Response given: 0.562

Challenge: Which relative viability is reported for this compound? NC(=O)Nc1cc(-c2cccc(F)c2)sc1C(=O)N[C@H]1CCCNC1 [AZD7762] + C[C@@H](Oc1cc(-c2cnn(C3CCNCC3)c2)cnc1N)c1c(Cl)ccc(F)c1Cl [Crizotinib] (partner 1 µM)
Response given: 0.883

Challenge: Field request: relative viability | item: NC(=O)Nc1cc(-c2cccc(F)c2)sc1C(=O)N[C@H]1CCCNC1 [AZD7762] + CC(=O)c1c(C)c2cnc(Nc3ccc(N4CCNCC4)cn3)nc2n(C2CCCC2)c1=O [Palbociclib] (partner 0.5 µM)
Response given: 0.465

Challenge: Please give the measured relative viability for this compound: NC(=O)Nc1cc(-c2cccc(F)c2)sc1C(=O)N[C@H]1CCCNC1 [AZD7762] + O=C(c1cc(Cc2n[nH]c(=O)c3ccccc23)ccc1F)N1CCN(C(=O)C2CC2)CC1 [Olaparib] (partner 8 µM)
Response given: 0.85

----------
For each of the compounds below, state its relative viability.
Tested on: NCI-H1755
protocol: relative viability (nuclei count vs DMSO), 5 days (fraction); higher = more cells survive
run-parameters: first compound 8 µM
Kindly provide the number alone.

Challenge: Reported relative viability for C=C1C(=O)O[C@@H](CCCCCCCC)[C@@H]1C(=O)O [C-75] + NC(=O)Nc1cc(-c2cccc(F)c2)sc1C(=O)N[C@H]1CCCNC1 [AZD7762] (partner 0.2 µM) : what is it?
Response given: 0.416

Challenge: Record request: relative viability value, item C=C1C(=O)O[C@@H](CCCCCCCC)[C@@H]1C(=O)O [C-75] + CC(C)C[C@H](NC(=O)[C@H](Cc1ccccc1)NC(=O)c1cnccn1)B(O)O [Bortezomib] (partner 0.002 µM)
Response given: 0.957

Challenge: Reported relative viability, compound C=C1C(=O)O[C@@H](CCCCCCCC)[C@@H]1C(=O)O [C-75] + N=C(N)NC(=N)NCCc1ccccc1 [Phenformin] (partner 250 µM) : ____
Response given: 0.607

Challenge: Quick one: relative viability of C=C1C(=O)O[C@@H](CCCCCCCC)[C@@H]1C(=O)O [C-75] + Nc1nc2[nH]cc(CCc3ccc(C(=O)N[C@@H](CCC(=O)O)C(=O)O)cc3)c2c(=O)[nH]1 [Pemetrexed] (partner 0.2 µM) ?
Response given: 0.438

Challenge: // returns reported relative viability for input C=C1C(=O)O[C@@H](CCCCCCCC)[C@@H]1C(=O)O [C-75] + Cc1nc(NC(=O)N2CCC[C@H]2C(N)=O)sc1-c1ccnc(C(C)(C)C(F)(F)F)c1 [Alpelisib] (partner 2 µM)
Response given: 0.919

Challenge: What value of measured relative viability is listed for C=C1C(=O)O[C@@H](CCCCCCCC)[C@@H]1C(=O)O [C-75] + CS(=O)(=O)N1CCN(Cc2cc3nc(-c4cccc5[nH]ncc45)nc(N4CCOCC4)c3s2)CC1 [Pictilisib] (partner 1 µM) ?
Response given: 0.402
